Origin of measurements: paper doi:10.1101/2023.11.02.565282v1

target: GluK2(VCQ)2a (Rattus norvegicus, UniProt P42260, I567V/Y571C); assay: calcium-sensitive fluorescence assay; type: cell-based; settings: agonist; with 150 µM BPAM344; Fluo buffer pH 7.4
Sequence (P42260 32-908 I567V/Y571C): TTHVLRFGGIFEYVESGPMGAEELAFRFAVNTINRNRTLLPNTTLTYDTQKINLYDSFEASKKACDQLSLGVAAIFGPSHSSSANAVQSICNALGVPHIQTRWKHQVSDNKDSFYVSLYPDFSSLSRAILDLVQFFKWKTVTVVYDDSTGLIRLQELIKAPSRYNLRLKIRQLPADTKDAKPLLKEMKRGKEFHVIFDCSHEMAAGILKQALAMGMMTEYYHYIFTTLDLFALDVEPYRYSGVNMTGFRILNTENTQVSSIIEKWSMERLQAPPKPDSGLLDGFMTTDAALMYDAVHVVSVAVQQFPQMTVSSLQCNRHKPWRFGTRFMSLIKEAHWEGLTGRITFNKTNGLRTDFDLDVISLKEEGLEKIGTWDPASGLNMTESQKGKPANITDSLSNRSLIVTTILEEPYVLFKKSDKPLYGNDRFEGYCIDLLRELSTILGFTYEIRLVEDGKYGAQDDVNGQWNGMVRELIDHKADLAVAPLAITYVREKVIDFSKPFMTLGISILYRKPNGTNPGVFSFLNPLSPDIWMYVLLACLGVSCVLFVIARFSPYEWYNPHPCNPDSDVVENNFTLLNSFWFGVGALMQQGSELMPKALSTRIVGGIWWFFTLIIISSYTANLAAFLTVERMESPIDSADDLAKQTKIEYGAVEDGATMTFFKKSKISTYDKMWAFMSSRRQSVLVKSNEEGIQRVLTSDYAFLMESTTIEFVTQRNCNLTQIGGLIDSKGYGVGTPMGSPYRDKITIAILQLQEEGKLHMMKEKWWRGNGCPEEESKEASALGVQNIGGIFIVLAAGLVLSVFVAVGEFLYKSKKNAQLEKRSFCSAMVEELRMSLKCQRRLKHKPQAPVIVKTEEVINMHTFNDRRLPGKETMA
MEASUREMENT_TYPE: EC50 (µM)

1. C/C(=C/C=C/[C@@H](C)C(=O)O)[C@H]1CN[C@H](C(=O)O)[C@H]1CC(=O)O [domoate] :: 1.33
